Tested on: Jurkat
Assay: Inhibition of TNF-alpha-induced necroptosis in FADD-deficient Jurkat T cells
Assay type: functional, cell-based, Homo sapiens
Conditions: Homo sapiens, Jurkat
For each entry below, report its EC50 value.
Quick reminder: number only, in µM, skip the unit.

## Task Which measured EC50 belongs to N#CCSc1nc2sc3c(c2c(=O)n1-c1ccc(F)cc1)CCCC3 , tested on Jurkat?
## Result 0.24

## Task Which measured EC50 belongs to N#CCSc1nc2sc3c(c2c(=O)n1-c1ccc(F)cc1)CCC3 , tested on Jurkat?
## Result 0.89

## Task Which measured EC50 belongs to COc1ccc(-n2c(SC)nc3sc4c(c3c2=O)CCCC4)cc1OC , tested on Jurkat?
## Result 16.7

## Task Which measured EC50 belongs to Cc1ccc(-n2c(SCC#N)nc3sc4c(c3c2=O)CC(C)CC4)cc1C (stereo unspecified) , tested on Jurkat?
## Result 16.7

## Task Which measured EC50 belongs to C#CCSc1nc2sc3c(c2c(=O)n1-c1ccc(OC)cc1)CCC3 , tested on Jurkat?
## Result 2.49

## Task Which measured EC50 belongs to COc1ccc(-n2c(SCC#N)nc3sc4c(c3c2=O)CCCC4)cc1OC , tested on Jurkat?
## Result 5.7

Values compiled from ChEMBL document CHEMBL1139128.
